assay: NCI Yeast Anticancer Drug Screen. Data for the sgs1 mgt1 strain (AID 161);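 also: 0% = growth of cultures given vehicle only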; details: S. cerevisiae sgs1 mgt1 strain, at 50.0 µM
About 79,000 compounds went through this panel and 15% of them were active in at least one assay; those are over-represented in the sample as a whole. The source made the active and inactive calls. Rule as the data show it: active = growth inhibition above about 70%; inactive = the rest.
Classes used: class 1 = active, class 0 = inactive

- COc1cc([C@@H]2C3C(=O)c4ccccc4C3[C@@H](c3cc(OC)c(OC)c(OC)c3)C23Cc2ccccc2C3=O)cc(OC)c1OC (stereo partly drawn): class 0
- CCCCCCCC1CCCC1=O (stereo not drawn): class 0
- Cc1nc2c(N3CCOCC3)ncnc2o1: class 0
- CC(=O)n1ccc(=O)[nH]c1=O: class 0
- O=C(NNC(=S)Nc1cccc(Cl)c1)c1ccncc1: class 0
- COC(=O)C1Cc2cc(OC)c(OC)cc2C(c2ccc(OC)c(OC)c2)C1C(N)=O (stereo not drawn): class 0
- COc1ccc(/C=N/NC(=O)NCCNCCO)cc1: class 0
- CC12C=CC(=O)C=C1CCC1C2C(O)CC2(C)/C(=C\CO)CCC12 (stereo not drawn): class 0
- ClCCOC(CCl)OCCCl: class 0
- C1CC(CCN2CCOCC2)CCN1: class 0
- CNC(=O)c1cc2nc3ccccc3c(=O)n2c2ccccc12: class 0
- N#Cc1c(-c2ccc(Cl)cc2)cn2c1[nH]c(=O)c1cc(Br)ccc12: class 0
- CCOC(=O)Oc1cc2c(ccn2C)c2c1c1ccccc1n2C(=O)OCC: class 0
- O=C1C(Cl)=C(SCc2ccccc2)C(=O)c2ccccc21: class 0
- CCCC(=O)Nc1cn(COC)c(C(=O)N2C[C@H]3C[C@@]34C2=CC(=O)c2[nH]cc(C)c24)n1: class 0
- [CH2+][B-]1(C)n2cc(Br)c[n+]2[B-](C)(C)[n+]2cc(Br)cn21: class 0
- N#CC1CCCCC(=O)N1 (stereo not drawn): class 0
- O=C(CSCC(=O)c1ccc([N+](=O)[O-])cc1)c1ccc([N+](=O)[O-])cc1: class 0
- CCN(CC)C1=CC(=O)C(N(CC)CC)=CC1=O: class 0
- OC(C1=C/C(=C\c2ccncc2)c2ccccc21)c1ccncc1 (stereo not drawn): class 1
- O=CC12c3ccccc3C(c3ccccc31)C1C(=O)NC(=O)C12 (stereo not drawn): class 0
- N#Cc1c(-c2ccccc2)c[nH]c1/N=C/N: class 0
- OCC1C2C=CC(O2)[C@H]1CO (stereo partly drawn): class 0
- CC1(C)OC(=O)c2ccccc21: class 0
- CCOC(=O)c1[nH]c(COC(C)=O)c2c1CCCCCCCCCC2: class 0
- CCOc1ccccc1C(=O)O: class 0
- CCN(CC)CCOc1ccccc1C(C)C: class 0
- Cc1ccc(S(=O)(=O)NCCN)cc1: class 0
- O=C(NC1CCCCC1)C1C2CC3OC(=O)C1C3C2 (stereo not drawn): class 0
- S=C1N(/N=C/c2c3ccccc3cc3ccccc23)C(=Nc2ccccc2)C(=Nc2ccccc2)N1c1ccccc1: class 0
- CC(=O)N(C)C1=C(Sc2ccc([N+](=O)[O-])cc2)C(=O)c2ccccc2C1=O: class 1
- c1ccc(-c2cc(-c3ccccc3)c3ccc4c(-c5ccccc5)cc(-c5ccccc5)c5ccc2c3c54)cc1: class 0
- CC(=O)C1=C(C)N2C(=NC3=C(CCc4ccccc43)C2c2ccc(F)cc2)S1 (stereo not drawn): class 0
- COc1cccc(NC(=O)CC(=O)N2N=C(N(CCC#N)c3ccc(Cl)cc3)CC2c2ccccc2)c1 (stereo not drawn): class 0
- CC(CC#N)=C(c1ccccc1)c1ccccc1: class 0
- Nc1nc(N)[n+]([O-])c(N)c1NCO: class 0
- Clc1ccc(C2=NON(c3ncccn3)C3N=CC=CN23)cc1 (stereo not drawn): class 0
- CC(C)OC(=O)C(=O)OC(C)C: class 0
- NC(CCCCO)C(=O)O (stereo not drawn): class 0
- CCCC1OC1(CC)C(=O)OCC(CC)(COC(=O)C1(CC)OC1CCC)COC(=O)C1(CC)OC1CCC (stereo not drawn): class 0
- COc1cc(CNc2nc3ccccc3nc2C(=O)O)cc(OC)c1OC: class 0
- CC(=O)S: class 0
- C[N+]1=CN(c2ccc(Cl)cc2)Cc2cc(Cl)ccc21: class 0
- O=C(Nc1ccc(Cl)c(Cl)c1)Oc1ccc2ccccc2c1: class 0
- CC(=O)NC(C=O)C(O)C(O)C(O)C(=O)O (stereo not drawn): class 0
- COc1ccc(OC)c(C(O)P(=O)(c2ccccc2)c2ccccc2)c1 (stereo not drawn): class 0
- CC1=CC(C)(C)NC(=S)N1C1CCCCC1: class 0
- O=[N+]([O-])c1ccc(S(=O)c2ccc([N+](=O)[O-])cc2)cc1: class 0

Provenance of the data: PubChem BioAssay (NCI)
